Tested on: Avena fatua (AVEFA)
Test: Glasshouse assay for herbicidal activity (pre- and post-emergence), percentage phytotoxicity
Assay type: in vivo
Details: Avena fatua, pre-emergence, 480 h, Rate 250 g/ha; pre-emergence; assessed visually 20 DAA; 100%=total damage, 0%=no damage; read-out: Pre-emergence herbicidal activity (percentage phytotoxicity) AVEFA PRE
Decide using pest or weed control at 250 g/ha alone. Strictly below 80%: Met. Equal to or above 80%: Not met.

Data request: Hi there! Is pest or weed control at 250 g/ha for Cc1cc(C)c(C2C(=O)CC(CC(=O)NC3CC3)C2=O)c(C)c1 (stereo not drawn) [Compound A15] below 80%, do you know?
Data returned: Met

The measurements presented in this section are drawn from patent US10206394B2.
